Source listed as patent US10196381B2.

- SYSTEM TESTED: UniProt:P09874
- ASSAY NOTES: PARP enzyme activity assay (HT Universal Chemiluminescent PARP Assay Kit, histone-coated wells)
- Assay type: biochemical
- MEASUREMENT CONDITIONS: read-out: Inhibition (%) at 30 nM
ATTRIBUTE MEASURED: inhibition at 0.03 µM (%)
Numeric only. Scale: %

Data point: CC(=O)Nc1cnc(N2CCN(c3nc4c(C(N)=O)cccc4[nH]3)CC2)nc1 ; inhibition at 0.03 µM = 27

Further cases:
response.value for N#Cc1cnc(N2CCN(c3nc4c(C(N)=O)cc(F)cc4[nH]3)CC2)nc1 (field: inhibition at 0.03 µM) = 77

So, CN(C)C(=O)c1cnc(N2CCN(c3nc4c(C(N)=O)cc(F)cc4[nH]3)CC2)cn1 ? Its inhibition at 0.03 µM was 83

Lab book: inhibition at 0.03 µM of CN(C)C(=O)c1ncc(N2CCN(c3nc4c(C(N)=O)cc(F)cc4[nH]3)CC2)cn1 noted as 75

====

- SYSTEM TESTED: PARP-1 enzyme (Homo sapiens (Human), UniProt P09874)
- Sequence (P09874 whole entry): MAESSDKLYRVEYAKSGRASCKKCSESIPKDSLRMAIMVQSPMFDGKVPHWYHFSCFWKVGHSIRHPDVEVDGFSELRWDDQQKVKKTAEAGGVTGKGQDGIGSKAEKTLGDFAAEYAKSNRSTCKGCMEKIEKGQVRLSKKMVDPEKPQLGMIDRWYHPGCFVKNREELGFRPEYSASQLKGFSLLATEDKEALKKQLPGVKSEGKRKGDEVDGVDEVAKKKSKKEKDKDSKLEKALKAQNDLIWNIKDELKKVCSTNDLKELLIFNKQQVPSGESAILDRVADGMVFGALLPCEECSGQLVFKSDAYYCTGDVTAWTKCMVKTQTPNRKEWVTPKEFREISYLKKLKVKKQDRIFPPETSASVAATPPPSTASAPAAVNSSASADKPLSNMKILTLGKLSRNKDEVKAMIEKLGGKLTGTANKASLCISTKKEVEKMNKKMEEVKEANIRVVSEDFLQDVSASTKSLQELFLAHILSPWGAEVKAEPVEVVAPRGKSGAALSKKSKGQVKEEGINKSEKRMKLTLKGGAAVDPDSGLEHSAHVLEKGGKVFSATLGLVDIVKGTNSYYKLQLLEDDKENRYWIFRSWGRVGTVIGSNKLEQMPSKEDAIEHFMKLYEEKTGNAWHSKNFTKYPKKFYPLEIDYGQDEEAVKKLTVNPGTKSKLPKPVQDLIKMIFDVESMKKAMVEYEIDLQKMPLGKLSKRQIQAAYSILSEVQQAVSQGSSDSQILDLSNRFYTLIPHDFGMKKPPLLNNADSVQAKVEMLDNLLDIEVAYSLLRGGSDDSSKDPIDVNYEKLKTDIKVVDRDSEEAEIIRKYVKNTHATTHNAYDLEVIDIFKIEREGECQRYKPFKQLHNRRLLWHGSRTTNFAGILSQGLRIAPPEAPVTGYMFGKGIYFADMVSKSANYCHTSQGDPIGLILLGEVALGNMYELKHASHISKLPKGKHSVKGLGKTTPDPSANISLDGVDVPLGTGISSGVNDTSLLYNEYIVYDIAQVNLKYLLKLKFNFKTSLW
- ASSAY NOTES: PARP enzyme activity assay (HT Universal Chemiluminescent PARP Assay Kit, histone-coated wells)
- Assay type: biochemical
- MEASUREMENT CONDITIONS: read-out: Inhibition (%) at 100 nM
Listed below: inhibition at 0.1 µM values for each entry.
Hi, when you answer, please include the unit after the number. Thanks!

Some solved entries appear below for comparison.
Short answer for CNC(=O)c1cnc(N2CCN(c3nc4c(C(N)=O)cc(F)cc4[nH]3)CC2)cn1 : inhibition at 0.1 µM was 92%

Data point: CN(C)C(=O)c1cnc(N2CCN(c3nc4c(C(N)=O)cc(F)cc4[nH]3)CC2)cn1 ; inhibition at 0.1 µM = 92%

Next up:
The recorded inhibition at 0.1 µM for CNC(=O)c1ccc(N2CCN(c3nc4c(C(N)=O)cc(F)cc4[nH]3)CC2)nn1 is 89%

====

Catalogue of inhibition at 0.03 µM values
- SYSTEM TESTED: PARP-1 enzyme (Homo sapiens (Human), UniProt P09874)
- ASSAY NOTES: PARP enzyme activity assay (HT Universal Chemiluminescent PARP Assay Kit, histone-coated wells)
- Format: biochemical
- MEASUREMENT CONDITIONS: read-out: Inhibition (%) at 30 nM
All answers are understood in %, so give the number only.

These solved cases illustrate the format of a correct answer.
Sample NC(=O)c1cc(F)cc2[nH]c(N3CCN(c4cnc(C(F)(F)F)nc4)CC3)nc12 [Compound (33)] ; inhibition at 0.03 µM observed: 88

inhibition at 0.03 µM reported for this molecule CC(C)(C)NC(=O)c1cnc(N2CCN(c3nc4c(C(N)=O)cc(F)cc4[nH]3)CC2)cn1 [Compound (28)] : 53

Record NC(=O)c1cccc2[nH]c(N3CCN(c4ncc(F)cn4)CC3)nc12 [Compound (2)] , field inhibition at 0.03 µM: 42

The reported value for NC(=O)c1cccc2[nH]c(N3CCN(c4ccnc(C(F)(F)F)c4)CC3)nc12 [Compound (13)] in terms of inhibition at 0.03 µM is 43

New cases:
inhibition at 0.03 µM in this record for NC(=O)c1cc(F)cc2[nH]c(N3CCN(c4cnc(C(=O)N5CCCC5)cn4)CC3)nc12 [Compound (29)] : 71

The reported value for NC(=O)c1cc(F)cc2[nH]c(N3CCN(c4ncc(C(F)(F)F)cn4)CC3)nc12 [Compound (34)] in terms of inhibition at 0.03 µM is 36

molecule CC(C)NC(=O)c1cnc(N2CCN(c3nc4c(C(N)=O)cc(F)cc4[nH]3)CC2)cn1 [Compound (27)] , inhibition at 0.03 µM observed: 66
